Taken from patent US20110183954A1.

molecular target: UniProtKB O60674; test: Method 1 (JAK2): Amplified Luminescent Proximity Assay (Alphascreen); type: biochemical; set-up: His6 (C); purchased Upstate Biotechnology; host or cells: baculovirus in Sf21 cells; conditions: 150 pM JAK2 enzyme, 5 mM ATP, 60 minutes, room temperature, read-out: IC50 (JAK inhibitory activity, Method 1 (JAK2))
Sequence (O60674 808-1132 limits assumed): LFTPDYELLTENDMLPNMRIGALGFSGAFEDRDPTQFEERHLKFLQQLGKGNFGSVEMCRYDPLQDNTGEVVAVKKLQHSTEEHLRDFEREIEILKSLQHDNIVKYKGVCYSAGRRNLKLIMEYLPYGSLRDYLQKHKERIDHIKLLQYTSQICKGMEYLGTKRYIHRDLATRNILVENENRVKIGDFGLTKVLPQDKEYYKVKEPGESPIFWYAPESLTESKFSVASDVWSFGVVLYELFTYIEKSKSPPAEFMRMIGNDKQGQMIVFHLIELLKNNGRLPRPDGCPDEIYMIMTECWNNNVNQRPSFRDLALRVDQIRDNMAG
MEASUREMENT_KIND: pIC50
Please note pIC50 is a logarithmic value: minus log10 of concentration in mol/L. Answer with that number alone.

{"INPUT_SMILES": "C[C@H](Nc1nc(Nc2cn(C)cn2)nc(N2CCOCC2)n1)c1ccc(C#N)cc1", "MEASUREMENT_KIND": "pIC50", "ENDPOINT_VALUE": 6.10}
{"INPUT_SMILES": "Cc1cnc(Nc2nc(N[C@@H](C)c3ncc(F)cn3)nc(N3CCOCC3)n2)s1", "MEASUREMENT_KIND": "pIC50", "ENDPOINT_VALUE": 8.40}
{"INPUT_SMILES": "C[C@H](Nc1nc(Nc2cscn2)nc(N2CCOCC2)n1)c1ncc(F)cn1", "MEASUREMENT_KIND": "pIC50", "ENDPOINT_VALUE": 6.66}

Next, consider the following compound.
Lookup result for COC[C@H](Nc1nc(Nc2cn(C)cn2)nc(N2CCOC(C)(C)C2)n1)c1ncc(F)cc1F ; measured pIC50: 8.05

---

target: human JAK2 (Homo sapiens, UniProt O60674); assay: Method 2 (JAK2): mobility shift assay on Caliper LC3000 reader, 5 mM ATP; format: biochemical; parameters: human JAK2 (amino acids 831-1132, PLAZA database pAZB0359) expressed in insect cells; GST (N); made in house; host or cells: insect cells; details: 0.3 nM JAK2 enzyme, 90 minutes, read-out: IC50 (JAK inhibitory activity, Method 2 (JAK2))
Sequence (O60674 831-1132): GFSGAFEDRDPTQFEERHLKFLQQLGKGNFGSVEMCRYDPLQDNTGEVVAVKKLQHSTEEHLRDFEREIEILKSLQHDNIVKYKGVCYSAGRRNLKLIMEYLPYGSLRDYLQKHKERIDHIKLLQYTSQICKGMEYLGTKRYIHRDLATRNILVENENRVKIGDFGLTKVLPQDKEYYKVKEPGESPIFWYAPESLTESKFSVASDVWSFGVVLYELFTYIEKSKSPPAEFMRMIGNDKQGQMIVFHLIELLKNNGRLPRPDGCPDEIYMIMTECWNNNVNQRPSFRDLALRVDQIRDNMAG
Strictly below 70 nM in IC50: True. Otherwise: False.

{"COMPOUND": "Cn1cnc(Nc2nc(NC(CNC(=O)OC(C)(C)C)c3ccc(F)cc3)nc(N3CCOCC3)n2)c1 (single isomer, unassigned) [Example 24a]", "CLASSIFICATION": "False"}

Find out if reported IC50 for [2H]C1([2H])OC([2H])([2H])C([2H])([2H])N(c2nc(Nc3cn(C)cn3)nc(NC(C)c3ncc(F)cc3F)n2)C1([2H])[2H] (single isomer, unassigned) [Example 11b] is less than 70 nM
True

Find out if reported IC50 for Cn1cnc(Nc2nc(NC(CNC(=O)OC(C)(C)C)c3ccc(F)cc3)nc(N3CCOCC3)n2)c1 (single isomer, unassigned) [Example 24b] is less than 70 nM
False

Find out if reported IC50 for Cn1cnc(Nc2nc(NC(c3ccc(F)cc3)C3CCCC3)nc(N3CCOCC3)n2)c1 (stereo not drawn) is less than 70 nM
False

Find out if reported IC50 for [2H]C1([2H])OC([2H])([2H])C([2H])([2H])N(c2nc(Nc3cn(C)cn3)nc(NC(C)c3ncc(F)cc3F)n2)C1([2H])[2H] (single isomer, unassigned) [Example 11a] is less than 70 nM
False

Find out if reported IC50 for Cn1cnc(Nc2nc(NC(c3ccc(F)cc3)c3nccn3C)nc(N3CCOCC3)n2)c1 (single isomer, unassigned) [Example 25b] is less than 70 nM
False
